Origin of values: ChEMBL document CHEMBL1806486

- measured target: Vascular endothelial growth factor receptor 2 (Homo sapiens)
- Sequence (P35968 whole entry): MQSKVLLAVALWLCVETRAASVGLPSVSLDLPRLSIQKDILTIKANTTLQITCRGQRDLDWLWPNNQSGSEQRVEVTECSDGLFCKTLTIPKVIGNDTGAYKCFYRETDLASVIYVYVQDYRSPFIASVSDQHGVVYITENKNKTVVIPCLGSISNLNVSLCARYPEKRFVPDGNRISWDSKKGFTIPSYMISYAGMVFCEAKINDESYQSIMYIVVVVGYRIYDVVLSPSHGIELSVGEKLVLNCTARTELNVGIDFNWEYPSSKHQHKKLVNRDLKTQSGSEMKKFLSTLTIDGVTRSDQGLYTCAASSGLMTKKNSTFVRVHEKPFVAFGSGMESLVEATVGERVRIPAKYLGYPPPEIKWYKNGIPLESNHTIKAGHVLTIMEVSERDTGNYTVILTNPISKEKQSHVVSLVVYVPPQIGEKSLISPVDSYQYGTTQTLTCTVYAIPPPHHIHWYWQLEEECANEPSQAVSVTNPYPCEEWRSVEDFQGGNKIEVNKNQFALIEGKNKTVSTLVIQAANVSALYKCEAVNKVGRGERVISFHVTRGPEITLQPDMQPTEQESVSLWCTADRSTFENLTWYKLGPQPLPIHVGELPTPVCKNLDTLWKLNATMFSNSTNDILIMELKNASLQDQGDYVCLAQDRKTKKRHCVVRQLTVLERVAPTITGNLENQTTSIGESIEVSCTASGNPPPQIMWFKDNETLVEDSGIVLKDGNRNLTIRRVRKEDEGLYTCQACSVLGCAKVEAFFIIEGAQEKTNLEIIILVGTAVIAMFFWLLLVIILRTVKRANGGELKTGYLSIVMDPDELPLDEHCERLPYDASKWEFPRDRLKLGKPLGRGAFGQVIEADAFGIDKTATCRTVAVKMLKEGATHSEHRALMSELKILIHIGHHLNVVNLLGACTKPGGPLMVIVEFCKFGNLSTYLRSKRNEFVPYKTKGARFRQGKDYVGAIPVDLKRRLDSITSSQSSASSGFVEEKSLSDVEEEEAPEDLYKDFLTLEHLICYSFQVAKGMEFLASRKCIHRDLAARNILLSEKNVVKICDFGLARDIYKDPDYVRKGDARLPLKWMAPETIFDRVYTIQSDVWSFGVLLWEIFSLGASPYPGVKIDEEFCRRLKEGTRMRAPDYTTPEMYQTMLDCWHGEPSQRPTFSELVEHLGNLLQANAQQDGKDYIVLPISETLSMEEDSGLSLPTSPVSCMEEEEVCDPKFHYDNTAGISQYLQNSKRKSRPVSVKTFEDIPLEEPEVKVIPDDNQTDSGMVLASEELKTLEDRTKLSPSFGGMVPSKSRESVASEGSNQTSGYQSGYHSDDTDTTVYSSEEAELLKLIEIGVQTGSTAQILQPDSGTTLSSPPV
- protocol details: Inhibition of recombinant GST-tagged VEGFR2 expressed in Sf9 insect cells after 120 mins by Kinase-Glo assay
pIC50: −log10 of the molar value.
property: pIC50

Answered cases to consult:
- molecular string: "O=C(Nc1cc(-c2cccc(NS(=O)(=O)c3ccccc3)c2)n[nH]1)c1ccc(OCCN2CCCC2)cc1"
  pIC50: 6.70
- molecular string: "CN1CCN(c2ccc(C(=O)Nc3cc(-c4cccc(NS(=O)(=O)c5ccccc5)c4)n[nH]3)cc2)CC1"
  pIC50: 6.89

a. CCCS(=O)(=O)Nc1cccc(-c2cc(NC(=O)c3ccc(N4CCN(C)CC4)cc3)[nH]n2)c1
b. Cc1nc(Nc2cc(-c3cccc(NS(=O)(=O)c4ccccc4)c3)n[nH]2)cc(N2CCN(CCO)CC2)n1
c. CN1CCN(c2ccc(C(=O)Nc3cc(-c4cccc(NS(=O)(=O)c5cccc(Cl)c5)c4)n[nH]3)cc2)CC1
d. CN1CCN(c2cccc(C(=O)Nc3cc(-c4cccc(NS(=O)(=O)c5ccccc5)c4)n[nH]3)c2)CC1
**Q:** Task field, ranking: reported pIC50, descending order. As an answer, provide the labels arranged in the order called for.
**A:** b, c, d, a
(b: 6.85, c: 6.60, d: 6.39, a: 5.57)

###

- measured target: Vascular endothelial growth factor receptor 1 (Homo sapiens, UniProt P17948)
- Sequence (P17948 whole entry): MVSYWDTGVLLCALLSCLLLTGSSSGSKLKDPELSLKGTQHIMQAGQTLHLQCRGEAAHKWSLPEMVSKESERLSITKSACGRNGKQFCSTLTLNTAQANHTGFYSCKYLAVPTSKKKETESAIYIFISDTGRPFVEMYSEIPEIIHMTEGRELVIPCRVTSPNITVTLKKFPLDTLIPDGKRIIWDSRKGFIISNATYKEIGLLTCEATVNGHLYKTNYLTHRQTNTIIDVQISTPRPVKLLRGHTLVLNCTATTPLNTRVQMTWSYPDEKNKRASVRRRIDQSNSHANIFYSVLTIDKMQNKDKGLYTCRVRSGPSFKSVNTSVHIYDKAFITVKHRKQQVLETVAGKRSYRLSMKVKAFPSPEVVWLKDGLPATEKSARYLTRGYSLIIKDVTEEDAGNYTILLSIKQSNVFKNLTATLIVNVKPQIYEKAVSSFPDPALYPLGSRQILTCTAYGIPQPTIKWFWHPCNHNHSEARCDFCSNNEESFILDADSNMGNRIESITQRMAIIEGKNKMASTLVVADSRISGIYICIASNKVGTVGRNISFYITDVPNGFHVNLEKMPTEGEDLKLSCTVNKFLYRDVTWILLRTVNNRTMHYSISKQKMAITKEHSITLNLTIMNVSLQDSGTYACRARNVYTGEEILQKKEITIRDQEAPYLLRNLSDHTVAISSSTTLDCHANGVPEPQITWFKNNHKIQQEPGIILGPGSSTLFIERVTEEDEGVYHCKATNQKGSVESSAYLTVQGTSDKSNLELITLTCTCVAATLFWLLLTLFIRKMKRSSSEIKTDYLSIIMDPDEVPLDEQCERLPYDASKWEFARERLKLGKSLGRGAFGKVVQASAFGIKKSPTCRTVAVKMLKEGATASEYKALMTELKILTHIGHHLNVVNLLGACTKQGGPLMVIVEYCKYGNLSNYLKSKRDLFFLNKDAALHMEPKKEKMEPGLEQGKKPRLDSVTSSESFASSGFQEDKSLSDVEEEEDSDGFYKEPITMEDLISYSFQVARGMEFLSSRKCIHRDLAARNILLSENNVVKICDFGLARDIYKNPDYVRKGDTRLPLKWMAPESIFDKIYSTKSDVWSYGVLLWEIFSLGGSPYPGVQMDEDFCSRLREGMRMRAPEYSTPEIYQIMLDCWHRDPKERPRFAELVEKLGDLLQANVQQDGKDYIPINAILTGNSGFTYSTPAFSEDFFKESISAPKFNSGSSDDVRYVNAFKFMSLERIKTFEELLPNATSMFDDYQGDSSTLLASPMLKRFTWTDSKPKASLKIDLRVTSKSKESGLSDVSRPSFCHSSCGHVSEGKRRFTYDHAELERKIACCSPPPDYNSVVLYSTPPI
- protocol details: Inhibition of recombinant GST-tagged VEGFR1 expressed in Sf9 insect cells after 120 mins by Kinase-Glo assay
In this section we review reported IC50 values for a set of compounds.

- molecular string: "O=C(Nc1cc(-c2cccc(NS(=O)(=O)c3ccccc3)c2)n[nH]1)c1ccc(OCCN2CCOCC2)cc1"
  value: "> 1 µM"
- molecular string: "Cc1nc(Nc2cc(-c3cccc(NS(=O)(=O)c4ccccc4)c3)n[nH]2)cc(N2CCC(O)CC2)n1"
  value: "> 1 µM"
- molecular string: "CCS(=O)(=O)Nc1cccc(-c2cc(NC(=O)c3ccc(N4CCN(C)CC4)cc3)[nH]n2)c1"
  value: "> 1 µM"

Next item in the queue.
**Q:** Need IC50 of Cc1cccc(S(=O)(=O)Nc2cccc(-c3cc(NC(=O)c4ccc(N5CCN(C)CC5)cc4)[nH]n3)c2)c1 , thanks.
**A:** 0.14 µM

###

- protocol details: Clearance in Sprague-Dawley rat at 5 mg/kg, iv and 20 mg/kg, po
- Format: ADME, organism-based
- details: in vivo
property: clearance (mL/min/kg)
Give the quantity in mL/min/kg, number only.

**Q:** Need clearance of Cc1nc(Nc2cc(-c3cccc(NS(=O)(=O)c4ccccc4)c3)n[nH]2)cc(N2CCN(C)CC2)n1 , thanks.
**A:** 57.4

###

- measured target: Aurora kinase A (Homo sapiens)
- Sequence (O14965 whole entry): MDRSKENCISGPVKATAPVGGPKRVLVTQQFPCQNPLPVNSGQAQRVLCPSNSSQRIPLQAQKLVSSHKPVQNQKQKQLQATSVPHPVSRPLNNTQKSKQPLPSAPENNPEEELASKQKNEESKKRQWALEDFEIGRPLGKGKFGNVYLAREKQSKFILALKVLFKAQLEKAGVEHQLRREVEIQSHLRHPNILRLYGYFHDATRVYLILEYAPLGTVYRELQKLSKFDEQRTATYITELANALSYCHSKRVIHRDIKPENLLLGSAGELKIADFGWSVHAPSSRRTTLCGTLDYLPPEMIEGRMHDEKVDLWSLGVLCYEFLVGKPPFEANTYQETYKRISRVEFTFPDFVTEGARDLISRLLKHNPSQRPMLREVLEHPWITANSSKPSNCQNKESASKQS
- protocol details: Inhibition of recombinant GST-tagged Aurora A expressed in Sf9 insect cells after 90 mins by Kinase-Glo assay
pIC50: −log10 of the molar value.
property: pIC50

Answered cases to consult:
- molecular string: "CN1CCN(c2ccc(C(=O)Nc3cc(-c4cccc(NS(=O)(=O)c5ccc(Cl)cc5)c4)n[nH]3)cc2)CC1"
  value: 5.30
- molecular string: "CN1CCN(c2cccc(C(=O)Nc3cc(-c4cccc(NS(=O)(=O)c5ccccc5)c4)n[nH]3)c2)CC1"
  value: 6.07

1. Cc1nc(NCCCN2CCOCC2)cc(Nc2cc(-c3cccc(NS(=O)(=O)c4ccccc4)c3)n[nH]2)n1
2. CN1CCN(c2ccc(C(=O)Nc3cc(-c4cccc(NS(=O)(=O)c5cccc(Cl)c5)c4)n[nH]3)cc2)CC1
3. Cc1nc(Nc2cc(-c3cccc(NS(=O)(=O)c4ccccc4)c3)n[nH]2)cc(N2CCN(CCO)CC2)n1
**Q:** Endpoint returns the given compounds ordered by ascending pIC50. As an answer, provide the labels arranged in the order called for.
**A:** 2, 1, 3
(2: 5.77, 1: 6.17, 3: 6.77)
